I'd be grateful if you could share measured logFC for these entries.
- Tgt: T1, I-A^b (MHCII) of murine bone marrow-derived dendritic cells from C57BL/6J mice (mouse), P14434
- T1 chain 1: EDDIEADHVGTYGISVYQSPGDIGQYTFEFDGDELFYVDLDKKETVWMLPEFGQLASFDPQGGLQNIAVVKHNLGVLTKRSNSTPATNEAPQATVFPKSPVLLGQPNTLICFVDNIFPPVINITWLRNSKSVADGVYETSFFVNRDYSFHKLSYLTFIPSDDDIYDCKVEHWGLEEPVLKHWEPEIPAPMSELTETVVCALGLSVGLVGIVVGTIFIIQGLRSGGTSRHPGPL
- T1 chain 2: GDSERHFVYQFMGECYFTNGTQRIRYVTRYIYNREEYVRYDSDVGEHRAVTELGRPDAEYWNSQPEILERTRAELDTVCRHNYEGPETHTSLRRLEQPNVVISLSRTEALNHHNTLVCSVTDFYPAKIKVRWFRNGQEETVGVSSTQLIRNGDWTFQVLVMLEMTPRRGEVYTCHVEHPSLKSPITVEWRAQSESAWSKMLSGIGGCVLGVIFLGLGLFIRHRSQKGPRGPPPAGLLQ
- Assay info: MHCII peptidomics: Y3P IP of peptide-MHCII from BMDCs exposed to live Listeria, iTRAQ LC-MS/MS
- Run conditions: scale: log2 fold change, Listeria 6 hr versus 10 min
Number only, no unit.

// logFC lookup, binder = ERWNEKYAQAYPNVS (modifications not checked) , result: 0.207

// logFC lookup, binder = VERWNEKYAQAYPNVS (modifications not checked) , result: 0.285

// logFC lookup, binder = WNEKYAQAYPNVS (modifications not checked) , result: 1.38

// logFC lookup, binder = WNEKYAQAYPNVSAKI (modifications not checked) , result: 1.2
